# Test system: SF-268
# ASSAY PROTOCOL: NCI tumour cell line growth inhibition, 48 h
Active and inactive are the calls of the source. Rule as the data show it: active = GI50 up to about 1.1 µM and inactive = higher.
Log the outcome using a class from active, inactive

Examples with answers:
CCOC(=O)C1(C/C=C(/C)Cl)CCCC1=O (stereo unspecified) :: inactive
C=CCc1cc(-c2cc(CC=C)c(O)c(CNCCCl)c2)cc(CNCCCl)c1O :: inactive
COc1cc(OC)c(OC)cc1/C=C/c1ccccn1 :: inactive
CC1(C)OCC([C@H]2CC23SCCCS3)O1 (stereo partly specified) :: inactive
Cc1nc2c(n1CCO)C(=O)c1ccccc1C2=O :: inactive

Just curious, what result did `Nc1ccc2nc3n(c2c1)C(=O)c1ccccc1-3` get here? inactive

Just curious, what result did COc1nc(C#CCC(C)O)nc(OC)n1 (stereo unspecified) get here? inactive

Just curious, what result did `Nc1cc(-c2ccc(Cl)cc2)nn1-c1nc2ccccc2nc1-c1ccccc1` get here? inactive

Just curious, what result did CCC1(c2ccc(N3C(=O)c4ccccc4C3=O)cc2)CCC(=O)NC1=O (stereo unspecified) get here? inactive

Just curious, what result did Cc1cccc(NC(=O)/C(=N\N)C(c2cnc3ccc([N+](=O)[O-])cc3n2)[N+](=O)[O-])c1C (stereo unspecified) get here? inactive

Just curious, what result did `S=C(N/N=C\C=N/NC(=S)N1CCCCC1)N1CCCCC1` get here? active
